Kindly state clearance for each of the entries shown.
- METHOD_NOTES: in vivo
- EXPERIMENTAL_CONDITIONS: Wistar, rat, iv, 0.5 mg/kg
State just the number; it will be interpreted in mL/min/kg.

input: Read off the recorded clearance for Cc1c[nH]c2nccc(Oc3ccc(Nc4ccnc(N)n4)cc3F)c12
output: 35

input: Respond only with clearance recorded for Cc1c[nH]c2nccc(Oc3c(F)cc(Nc4ccnc(N)n4)cc3F)c12
output: 26.7

input: Identify measured clearance corresponding to Nc1nc(Nc2ccc(Oc3ccnc4[nH]ccc34)c(F)c2)cc(-c2ccncc2)n1
output: 88.3

input: Please supply the value of reported clearance for the item Cc1c[nH]c2nccc(Oc3c(F)cc(Nc4cc(Cl)nc(N)n4)cc3F)c12
output: 28.3

The measurements presented in this section are drawn from ChEMBL document CHEMBL5715943.
